- Target Entity: T1, recombinant cynomolgus monkey C5 (cynomolgus monkey, UniProt P01031 19-1676 (human entry), limits assumed)
- T1 construct: also called cynoC5
- T1 chain: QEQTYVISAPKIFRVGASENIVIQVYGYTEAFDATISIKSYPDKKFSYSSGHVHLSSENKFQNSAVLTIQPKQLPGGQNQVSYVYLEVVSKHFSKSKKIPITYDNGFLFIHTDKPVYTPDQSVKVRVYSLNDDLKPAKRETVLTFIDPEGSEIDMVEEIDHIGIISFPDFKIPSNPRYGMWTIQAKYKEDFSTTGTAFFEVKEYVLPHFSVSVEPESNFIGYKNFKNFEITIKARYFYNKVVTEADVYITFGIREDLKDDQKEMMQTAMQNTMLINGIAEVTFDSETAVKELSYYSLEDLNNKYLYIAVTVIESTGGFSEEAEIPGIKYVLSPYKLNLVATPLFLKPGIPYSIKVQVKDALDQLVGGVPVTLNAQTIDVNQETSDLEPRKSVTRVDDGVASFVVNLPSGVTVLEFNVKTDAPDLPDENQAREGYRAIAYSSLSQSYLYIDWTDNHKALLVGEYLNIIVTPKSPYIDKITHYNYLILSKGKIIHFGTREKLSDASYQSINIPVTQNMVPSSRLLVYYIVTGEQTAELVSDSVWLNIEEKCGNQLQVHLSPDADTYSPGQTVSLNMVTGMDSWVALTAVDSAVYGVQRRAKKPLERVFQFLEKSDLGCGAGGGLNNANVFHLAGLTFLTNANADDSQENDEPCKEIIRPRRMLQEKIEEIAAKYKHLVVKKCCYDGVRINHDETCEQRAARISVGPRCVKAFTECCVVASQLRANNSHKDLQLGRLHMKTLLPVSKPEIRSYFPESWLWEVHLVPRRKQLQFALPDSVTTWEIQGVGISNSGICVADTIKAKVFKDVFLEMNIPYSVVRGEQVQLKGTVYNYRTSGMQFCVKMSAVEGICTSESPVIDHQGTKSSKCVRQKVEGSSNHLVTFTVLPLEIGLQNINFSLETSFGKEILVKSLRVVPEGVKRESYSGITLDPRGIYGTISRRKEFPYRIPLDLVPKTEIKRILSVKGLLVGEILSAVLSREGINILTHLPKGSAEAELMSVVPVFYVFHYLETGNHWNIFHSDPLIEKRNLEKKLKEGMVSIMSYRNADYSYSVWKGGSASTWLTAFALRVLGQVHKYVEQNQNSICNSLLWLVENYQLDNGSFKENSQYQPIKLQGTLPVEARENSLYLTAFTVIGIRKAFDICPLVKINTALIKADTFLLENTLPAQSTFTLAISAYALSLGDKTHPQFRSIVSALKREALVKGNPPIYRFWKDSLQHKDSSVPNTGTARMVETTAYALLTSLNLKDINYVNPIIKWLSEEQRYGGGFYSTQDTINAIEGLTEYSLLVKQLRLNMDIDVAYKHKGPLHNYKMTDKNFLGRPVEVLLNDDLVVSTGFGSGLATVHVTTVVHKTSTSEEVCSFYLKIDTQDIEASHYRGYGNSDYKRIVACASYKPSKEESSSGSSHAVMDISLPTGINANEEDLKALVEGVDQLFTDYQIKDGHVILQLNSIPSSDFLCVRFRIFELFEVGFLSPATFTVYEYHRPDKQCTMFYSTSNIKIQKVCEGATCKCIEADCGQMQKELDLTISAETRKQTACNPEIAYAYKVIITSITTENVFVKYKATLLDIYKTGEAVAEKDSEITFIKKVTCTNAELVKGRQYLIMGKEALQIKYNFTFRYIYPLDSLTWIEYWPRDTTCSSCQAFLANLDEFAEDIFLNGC
- Procedure Text: SPR (BIACORE T200), antibody captured by ProA/G, recombinant cynoC5 injected, 37 degrees C, pH7.4
Reported Endpoint: koff (s⁻¹)
The reply should be a number in s⁻¹, with the unit left off.

**Query** Return reported koff; argument: CFA0366 (antibody, V domains shown) VH: QSLEESGGDLVKPGASLSLTCTAAGLDFSSSYYMCWVRQAPGKGLEWIACIYAGSSGIIYYANWAKGRFTISRPSSTTVTLQMTSLTAADTATYFCATYPTYGDGGHAFNLWGPGTLVTVSS VL: AQVLTQTPSSVSAAVGGTVTINCQSSQSVYSSDYLSWYQQKPGQPPKLLIYEASKLASGVPPRFSGSGSGTQFTLTISGVQCDDAATYYCQGTYYSSGWYFAFGGGTEVVVK
**Result** 0.00904

**Query** Return reported koff; argument: CFA0672 (antibody, V domains shown) VH: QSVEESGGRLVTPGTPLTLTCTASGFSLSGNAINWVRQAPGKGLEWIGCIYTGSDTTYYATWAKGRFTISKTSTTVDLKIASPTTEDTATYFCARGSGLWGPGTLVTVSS VL: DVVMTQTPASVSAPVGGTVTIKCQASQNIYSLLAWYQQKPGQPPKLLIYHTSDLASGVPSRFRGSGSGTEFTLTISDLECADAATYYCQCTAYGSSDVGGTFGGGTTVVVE
**Result** 0.00185
